measurement-description: qHTS of pediatric cancer cell lines to identify multiple opportunities for drug repurposing: Primary screen for NB1643 cells (AID 1347099);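 note: plate controls were DMSO neutral control for no effect and bortezomib positive control for full effect; nearly all actives have a fitted effect of over 50% in size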
experimental-context: NB1643 neuroblastoma viability, CellTiter-Glo luminescence, 48 h; series mostly up to 46 µM
Records with an inconclusive call do not appear. Activity calls are given as the source filed them. Calls come from the whole dose curve; as a rule, active = well fitted cell-killing curve with a large enough effect; inconclusive = small, poorly fitted or top-dose-only effect; inactive = no such curve, though single readings can be large or run the other way.
Write down one outcome, taken from 1 = active, -1 = inactive

CC(=O)OC1(c2ccccc2)CCN(CCc2ccccc2)CC1 : -1
CN1C2CCC(C)(C)C1CC(OC(=O)C(O)(c1cccs1)c1cccs1)C2 (stereo not given) : -1
CNC(=O)Oc1cccc2ccccc12 : -1
CCc1ccc(C2CCNCC2)cc1 : -1

Shifting focus to the compound that follows.
Task: Recorded test call requested for C[N+](C)(C)CCOC(=O)C(O)(c1ccccc1)c1ccccc1
Result: -1

====

measurement-description: Cytotoxicity counterscreen for inhibitors of SARS-CoV-2 cell entry (AID 1645845); note: nearly all actives have a fitted effect of over 50% in size
experimental-context: cell viability (SARS-CoV-2 entry assay cells); series mostly up to 57.1 µM
Inconclusive results are not listed. The source made the active and inactive calls. Calls follow the shape of the full dose curve.
Thanks in advance; please answer with one of these: active, inactive

Worked set:
CN1CCCCC1CCN1c2ccccc2Sc2ccc(S(C)=O)cc21 (configuration not stated) : inactive
NCCc1ccc(O)c(O)c1 : inactive
O=Cc1ccccc1C=O : inactive
CCCC[N+]1(C)[C@@H]2CC(OC(=O)[C@H](CO)c3ccccc3)C[C@H]1[C@@H]1O[C@@H]12 (some centres not stated) : inactive
Nc1ccc(N=Nc2ccccc2)c(N)n1 : inactive
CN(C)C(=S)SSC(=S)N(C)C : active

Task: What outcome does the record of this test show for FC(F)(F)C(Cl)Br (configuration not stated) ?
Result: inactive

====

Test system: W2
measurement-description: qHTS profiling for inhibitors of Plasmodium falciparum proliferation (AID 504749); note: nearly all actives have a fitted effect of over 60% in size; note: potency is the fitted concentration of half-maximal effect
experimental-context: P. falciparum in erythrocytes, SYBR Green DNA, 72 h; series mostly up to 28.7 µM
Results filed as inconclusive are left out. Activity calls are given as the source filed them. Calls come from the whole dose curve; as a rule, active = well fitted inhibition curve with a large enough effect; inconclusive = small, poorly fitted or top-dose-only effect; inactive = flat fitted curve, though single readings scatter.
observable: Potency

CCOC(=O)NC(O)C(Cl)(Cl)Cl (stereo not given) : inactive
COCC(=O)N(c1c(C)cccc1C)C(C)C(=O)OC (stereo not given) : inactive
Oc1ccc2[nH]cc(CCCCN3CC=C(c4ccccc4)CC3)c2c1 : 5.36 µM (active)
COC(=O)C1=CCCN(C)C1 : inactive
CCN(CC)C(C)C(=O)c1ccccc1 (stereo not given) : inactive
C[C@]12CC[C@H]3[C@@H](CC=C4C[C@@H](O)CC[C@@]43C)[C@@H]1CC[C@@H]2O : inactive
COP(=S)(OC)Oc1ccc(Sc2ccc(OP(=S)(OC)OC)cc2)cc1 : inactive
CCN(CC)CCOC(=O)C(C)(c1ccccc1)c1ccccc1 : 1.35 µM (active)

Task: Item CC(C)NCC(O)c1ccc(N)c(C#N)c1 (stereo not given) with W2 - Potency?
Result: inactive

Task: What measured Potency is associated with CN(C)C(=S)SSC(=S)N(C)C on W2?
Result: 0.849 µM (active)

Task: Reported Potency for W2, given Cc1c(Cl)c(=O)oc2cc(OP(=O)(OCCCl)OCCCl)ccc12 ?
Result: 6.75 µM (active)

Task: For W2, provide Potency of O=C(O)c1nn(Cc2ccc(Cl)cc2Cl)c2ccccc12 please.
Result: inactive

Task: Give recorded Potency with W2 for the following compound: Clc1ccc(CO/N=C(\Cn2ccnc2)c2ccc(Cl)cc2Cl)c(Cl)c1
Result: 1.69 µM (active)

Task: Find Potency (W2) for the entry COP(=O)(OC)C(O)C(Cl)(Cl)Cl (stereo not given)
Result: 4.26 µM (active)

Task: Lookup: Potency / W2 / CC(C)C(Br)C(=O)NC(N)=O (stereo not given)
Result: inactive
